Consider the following compounds; for each one, report its TGI.
Test system: SNB-19 CNS
Test: NCI tumour cell line growth inhibition, 48 h

Exercise: # lookup: TGI of CC1=NN(c2nc(N)nc(/C=C\c3ccccc3)n2)C(C)(C)C1
Key: 42.9 µM

Exercise: # lookup: TGI of O=C(/C=C/c1cccc(Oc2ccc(Cl)cc2)c1)c1ccccc1
Key: 111 µM

Exercise: # lookup: TGI of CC(C)(C)c1cc(C(OCCl)(C(F)(F)F)C(F)(F)F)c2c(c1)C(C(F)(F)F)(C(F)(F)F)OC21c2ccccc2C(=O)c2ccccc21
Key: > 100 µM

Exercise: # lookup: TGI of CCN(CC)C(=O)CCCCCn1c2ccccc2c2c3c(c4c5ccccc5[nH]c4c21)C(=O)N(O)C3=O
Key: > 100 µM

Exercise: # lookup: TGI of O=C(O)c1ccccc1CC(Cc1ccccc1)C(=O)O (configuration not stated)
Key: > 100 µM

Exercise: # lookup: TGI of CSC1(Cc2ccccn2)C(=O)Nc2cccc([N+](=O)[O-])c21 (configuration not stated)
Key: > 100 µM

Exercise: # lookup: TGI of CCOC(=O)[C@H]1Nc2c(cccc2[N+](=O)[O-])C2c3ccccc3CC21 (some centres not stated)
Key: > 100 µM

Exercise: # lookup: TGI of CC(=O)Nc1sccc1S(=O)(=O)c1ccc(Cl)cc1
Key: > 100 µM

Exercise: # lookup: TGI of NC(=O)C(=O)Cc1nc2ccccc2s1
Key: > 100 µM

Exercise: # lookup: TGI of COC(=O)[C@]1(C)[C@H]2C[C@H]3O[C@H]4[C@H](O)[C@@H](O)OC(CC(O)C(C5=CC(=O)OC5)C(C5=CC(=O)OC5)C(O)CC56CCCCC7[C@@H](C)[C@H](C[C@H]8[C@](C)(C(=O)OC)[C@H](O)CC[C@]78C)O[C@H]([C@@H](O)[C@H](O)O5)[C@H]6O)(CCCCC([C@@H]3C)[C@]2(C)CC[C@@H]1O)[C@H]4O (some centres not stated)
Key: 1.12 µM

Exercise: # lookup: TGI of Cc1cc(/N=C/c2ccc(Cl)cc2)n(-c2ccccc2)n1
Key: > 100 µM

Exercise: # lookup: TGI of CN(CCCNC(=O)c1c2ccc3ccccc3c2nn1C)CCCNC(=O)c1c2ccc3ccccc3c2nn1C
Key: 28.6 µM

Exercise: # lookup: TGI of NNC(=O)N/N=C1\CNC(=O)C(=O)C1c1nc2ccccc2s1 (configuration not stated)
Key: > 100 µM

Exercise: # lookup: TGI of CCCCOCCOCCOC1=C(Cl)C(=O)c2c(O)ccc(O)c2C1=O
Key: 3.2 µM

Exercise: # lookup: TGI of CCN(CCNc1ccc(C)c2sc3cc(Cl)ccc3c(=O)c12)CC(C)(C)O
Key: 25.8 µM

Exercise: # lookup: TGI of CC1(CCCCO)C=CC(S(=O)(=O)c2ccccc2)CC1 (configuration not stated)
Key: 26.6 µM

Exercise: # lookup: TGI of COc1cccc(Nc2nc(NS(=O)(=O)c3cc(C)c(Cl)cc3S)n[nH]2)c1
Key: > 100 µM

Exercise: # lookup: TGI of CCOP(=O)(/C=C\n1ccc(=O)[nH]c1=O)OCC
Key: > 100 µM

Exercise: # lookup: TGI of Cc1cn2c(/C=C3/C(=O)Nc4ccc(C(=O)O)cc43)c(C)nc2s1
Key: > 100 µM

Exercise: # lookup: TGI of Cc1cc2c3c(c1)CCCN3CCC2
Key: > 10 µM

Exercise: # lookup: TGI of CCN(CC)Cc1cc(Nc2cc(C(F)(F)F)c(C#N)c3nc4ccccc4n23)ccc1O
Key: 36.2 µM

Exercise: # lookup: TGI of O=C1c2ccccc2-n2c1nc1ccc(Cl)cc1c2=O
Key: > 100 µM

Exercise: # lookup: TGI of CCOP(=O)(/C=C/n1cnc2c(=O)n(C(C)=O)c(N)nc21)OCC
Key: > 100 µM

Exercise: # lookup: TGI of O/N=C1\CSc2ccccc2C1
Key: > 100 µM

Exercise: # lookup: TGI of C=CC1(O)CCCC=C1COCc1ccccc1 (configuration not stated)
Key: > 100 µM

Exercise: # lookup: TGI of CCN(CC)Cc1ccc(Nc2c3ccccc3nc3ccccc23)cc1
Key: 3.22 µM

Exercise: # lookup: TGI of O=[N+]([O-])c1ccc(/C=C\c2ccc3c(c2)OCO3)c([N+](=O)[O-])c1
Key: 33.6 µM

Exercise: # lookup: TGI of CCN(CC)C(=S)SSCCO
Key: > 100 µM

Exercise: # lookup: TGI of c1ccc2c(c1)[O][Sn][O]2
Key: > 150 µg/mL

Exercise: # lookup: TGI of CC(=O)OC1CC[C@@]2(C)C(=CC[C@@H]3[C@@H]2CC[C@]2(C)C(OC(C)=O)[C@H](n4ccnc4)C[C@@H]32)C1 (some centres not stated)
Key: > 100 µM

Exercise: # lookup: TGI of O=C(CCC(=O)C1Cc2ccccc2C1=O)Nc1cccc(C(F)(F)F)c1 (configuration not stated)
Key: > 100 µM

Exercise: # lookup: TGI of N#Cc1cccc(C2C3=C(COC3=O)N(CCO)c3cc4c(cc32)CCC4)c1 (configuration not stated)
Key: > 50 µM
